# test_system: Gamma-aminobutyric acid receptor subunit alpha-5 (Homo sapiens)
# Sequence (whole entry): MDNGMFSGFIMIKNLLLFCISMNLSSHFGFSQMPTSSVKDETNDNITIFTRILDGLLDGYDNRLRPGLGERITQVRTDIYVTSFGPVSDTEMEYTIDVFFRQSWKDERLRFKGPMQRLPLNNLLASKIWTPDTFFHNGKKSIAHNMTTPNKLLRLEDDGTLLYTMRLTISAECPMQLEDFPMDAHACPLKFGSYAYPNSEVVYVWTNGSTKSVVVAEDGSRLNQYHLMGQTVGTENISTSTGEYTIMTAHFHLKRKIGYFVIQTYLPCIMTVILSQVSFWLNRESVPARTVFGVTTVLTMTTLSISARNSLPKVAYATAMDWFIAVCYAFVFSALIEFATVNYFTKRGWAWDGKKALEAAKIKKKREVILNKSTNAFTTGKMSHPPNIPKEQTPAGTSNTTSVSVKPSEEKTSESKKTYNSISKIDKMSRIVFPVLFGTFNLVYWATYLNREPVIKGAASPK
# protocol_details: Maximum percent potentiation against gamma-aminobutyric acid (GABA) A receptor, alpha 5
# condition_description: Xenopus laevis
Lab note: anything with Activity at or over 7% counts as Yes; the rest go in No.

Example results:
smiles_input	assigned_class
Oc1nc2c(c3nc(-c4ccc(F)cc4F)cn13)CN(Cc1ccccc1)CC2	Yes
O=C(OCc1ccccc1)N1CCc2nc(O)n3cc(-c4ccccc4F)nc3c2C1	No
CCN1CCc2nc(O)n3cc(-c4ccccc4F)nc3c2C1	No

// query Quick check: does "Cc1nnc2n1-c1ccc(Cl)cc1C(c1ccccc1)=NC2" have Activity greater than or equal to 7%?
// result Yes

// query Same again, this time with "C=CCN1CCc2nc(O)n3cc(-c4ccccc4F)nc3c2C1"
// result No

// query // repeat for "Oc1nc2c(c3nc(-c4ccccc4F)cn13)CN(Cc1ccccc1)CC2" and report
// result Yes

// query Record: "Oc1nc2c(c3nc(-c4ccccc4F)cn13)CN(CC1CCCCC1)CC2"
// result Yes

// query Okay, and "Oc1nc2c(c3nc(-c4ccccc4F)cn13)CN(Cc1c[nH]cn1)CC2" ?
// result Yes

// query What do you get for "CCC(=O)N1CCc2nc(O)n3cc(-c4ccccc4F)nc3c2C1" ?
// result No

---

# test_system: Gamma-aminobutyric acid receptor subunit alpha-2 (Homo sapiens)
# Sequence (P47869 whole entry): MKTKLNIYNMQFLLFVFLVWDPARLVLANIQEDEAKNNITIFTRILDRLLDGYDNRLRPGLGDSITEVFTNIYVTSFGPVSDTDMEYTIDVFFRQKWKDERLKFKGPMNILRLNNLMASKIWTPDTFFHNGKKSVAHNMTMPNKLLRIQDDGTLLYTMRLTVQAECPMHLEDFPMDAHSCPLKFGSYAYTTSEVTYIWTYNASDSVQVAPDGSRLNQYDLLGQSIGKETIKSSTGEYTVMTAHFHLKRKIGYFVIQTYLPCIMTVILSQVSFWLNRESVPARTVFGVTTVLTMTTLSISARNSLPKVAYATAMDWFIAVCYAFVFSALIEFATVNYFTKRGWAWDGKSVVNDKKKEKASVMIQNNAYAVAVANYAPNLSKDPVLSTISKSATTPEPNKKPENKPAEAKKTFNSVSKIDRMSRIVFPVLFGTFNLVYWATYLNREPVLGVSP
# protocol_details: Effective concentration against gamma-aminobutyric acid (GABA) A receptor, alpha 2
value_type: EC50 (nM)
Use nM as the unit, but write only the number.

smiles_input	test_system	EC50 (nM)
Oc1nc2c(c3nc(-c4ccccc4F)cn13)CN(Cc1ccncc1)CC2	Gamma-aminobutyric acid receptor subunit alpha-2 (Homo sapiens)	99

// query Test system Gamma-aminobutyric acid receptor subunit alpha-2 (Homo sapiens); read-out EC50; what value for "CCC(=O)N1CCc2nc(O)n3cc(-c4ccccc4F)nc3c2C1" ?
// result 110

// query Please give the result for "COc1cccc(-c2cn3c(=O)[nH]c4c(c3n2)CN(Cc2ccccc2)CC4)c1" too.
// result 268

// query Moving on to "Oc1nc2c(c3nc(-c4ccccc4F)cn13)CN(Cc1cccs1)CC2"
// result 67
